# MEASUREMENT_TARGET: Na^+ /H^+ exchanger of rabbit erythrocytes (Oryctolagus cuniculus, UniProt P23791)
# Construct: endogenous in cells
# Sequence (P23791 whole entry): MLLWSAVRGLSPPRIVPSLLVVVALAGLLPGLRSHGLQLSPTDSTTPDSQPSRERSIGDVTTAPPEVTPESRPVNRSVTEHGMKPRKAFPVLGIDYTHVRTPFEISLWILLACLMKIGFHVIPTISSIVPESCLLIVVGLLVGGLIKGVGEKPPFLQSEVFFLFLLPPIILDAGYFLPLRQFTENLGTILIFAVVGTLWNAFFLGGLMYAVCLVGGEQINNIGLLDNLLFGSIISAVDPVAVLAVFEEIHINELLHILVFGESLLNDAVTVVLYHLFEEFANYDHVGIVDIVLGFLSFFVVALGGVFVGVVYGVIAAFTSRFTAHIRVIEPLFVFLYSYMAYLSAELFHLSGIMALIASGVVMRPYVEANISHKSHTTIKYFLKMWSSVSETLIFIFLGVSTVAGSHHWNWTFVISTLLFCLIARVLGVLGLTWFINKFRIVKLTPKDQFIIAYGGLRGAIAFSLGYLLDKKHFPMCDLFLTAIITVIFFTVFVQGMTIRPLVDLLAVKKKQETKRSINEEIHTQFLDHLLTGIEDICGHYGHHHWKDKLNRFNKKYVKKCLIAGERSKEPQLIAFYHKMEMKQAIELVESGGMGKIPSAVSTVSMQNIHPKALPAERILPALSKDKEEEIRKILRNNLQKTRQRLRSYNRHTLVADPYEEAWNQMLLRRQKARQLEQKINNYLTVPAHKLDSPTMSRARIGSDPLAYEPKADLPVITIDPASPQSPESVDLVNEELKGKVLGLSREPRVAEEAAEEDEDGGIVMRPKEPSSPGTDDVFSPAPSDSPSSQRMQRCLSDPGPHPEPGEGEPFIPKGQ
# ASSAY_COMMENT: Inhibition of the Na^+/H^+ exchanger of rabbit erythrocytes (amiloride-sensitive sodium influx, flame photometry)
# CONDITION_PARAMETERS: cholesterol-fed rabbits, hyperosmolar salt/sucrose medium, pH 7.4, 37° C.
Counter-ions that a name gives are not always drawn.
ASSAY_METRIC: IC50 (nM)

* CC(=O)c1cc(C(=O)N=C(N)N)ccc1O [Example 1, 3-Acetyl-4-hydroxybenzoylguanidine] | 2000
* CC(=O)c1cc(C(=O)N=C(N)N)ccc1OC(C)C [Example 3, hydrochloride] | 1100
* COc1ccc(C(=O)N=C(N)N)cc1C(C)=O [Example 2, hydrochloride] | 1000
* CC(=O)c1cc(C(=O)N=C(N)N)ccc1OCc1ccccc1 [Example 4, hydrochloride] | 1200
